experiment: Drug solubility in coconut oil, CAOM and related dissolving agents; format: physicochemical; settings: oil or lipid, thermodynamic from solid; in coconut oil, room temperature, mean±SD n=3; read-out: solubility of curcumin in coconut oil
measured_attribute: solubility at 2 days (µg/mL)
Field format: number, assumed µg/mL, no unit text.

// recorded solubility at 2 days for `COc1cc(/C=C/C(=O)CC(=O)/C=C/c2ccc(O)c(OC)c2)ccc1O` : 2440
